Source: ChEMBL document CHEMBL1156932

# Experimental Target: UniProt:P00740
# Sequence (P00740 47-191 limits assumed): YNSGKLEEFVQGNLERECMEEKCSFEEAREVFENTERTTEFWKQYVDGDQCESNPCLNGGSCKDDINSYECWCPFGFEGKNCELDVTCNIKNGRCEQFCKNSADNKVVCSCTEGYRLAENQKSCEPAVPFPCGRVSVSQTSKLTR
# Sequence (P00740 227-461 limits assumed): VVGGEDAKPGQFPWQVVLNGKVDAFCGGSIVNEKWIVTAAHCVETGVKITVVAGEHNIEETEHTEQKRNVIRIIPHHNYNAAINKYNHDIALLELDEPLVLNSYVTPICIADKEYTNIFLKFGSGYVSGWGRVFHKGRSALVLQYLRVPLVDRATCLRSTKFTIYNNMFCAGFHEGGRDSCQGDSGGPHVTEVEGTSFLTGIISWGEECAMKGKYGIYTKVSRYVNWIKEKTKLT
# Assay Protocol: Inhibition of human recombinant factor 9a by amidolytic assay
For each record, check the reported Ki: if it is below 30 nM write class 1, else write class 0.

Req: Could you please tell me whether Ki recorded for COc1ccc(NC(=O)OC[C@@H](Oc2cccc3sc(C(=N)N)cc23)c2ccccc2)cc1 is less than 30 nM?
Resp: class 0

Req: Could you please tell me whether Ki recorded for CNC(=O)OCC(Oc1cccc2sc(C(=N)N)cc12)c1ccccc1 (stereo not given) is less than 30 nM?
Resp: class 0

Req: Could you please tell me whether Ki recorded for N=C(N)c1cc2c(OC(CO)c3ccccc3)cccc2s1 (stereo not given) is less than 30 nM?
Resp: class 0

Req: Could you please tell me whether Ki recorded for CC(=O)NCC(Oc1cccc2sc(C(=N)N)cc12)c1ccccc1 (stereo not given) is less than 30 nM?
Resp: class 0

Req: Could you please tell me whether Ki recorded for N=C(N)c1cc2c(OC(CNC(=O)Nc3ccccc3)c3ccccc3)cccc2s1 (stereo not given) is less than 30 nM?
Resp: class 1

Req: Could you please tell me whether Ki recorded for N=C(N)c1cc2c(OC(COC(=O)Nc3cccc(F)c3)c3ccccc3)cccc2s1 (stereo not given) is less than 30 nM?
Resp: class 1

Req: Could you please tell me whether Ki recorded for Cc1noc(C)c1NC(=O)OCC(Oc1cccc2sc(C(=N)N)cc12)c1ccccc1 (stereo not given) is less than 30 nM?
Resp: class 1

Req: Could you please tell me whether Ki recorded for COC(=O)CCNC(=O)C(Oc1cccc2sc(C(=N)N)cc12)c1ccccc1 (stereo not given) is less than 30 nM?
Resp: class 0

Req: Could you please tell me whether Ki recorded for CNCc1cc(NC(=O)OCC(Oc2cccc3sc(C(=N)N)cc23)c2ccccc2)n(C)n1 (stereo not given) is less than 30 nM?
Resp: class 1

Req: Could you please tell me whether Ki recorded for N=C(N)c1cc2c(OC(CNCc3ccccc3)c3ccccc3)cccc2s1 (stereo not given) is less than 30 nM?
Resp: class 0

---

Assign Ratio Ki to each entry below.
# Assay Protocol: Selectivity ratio of Ki for factor 10a to Ki for human recombinant factor 9a
Enter a number only.

Reported Ratio Ki of N=C(N)c1cc2c(OC(COC(=O)Nc3ccccc3)c3ccccc3)cccc2s1 (centres undefined) : 181

Reported Ratio Ki of N=C(N)c1cc2c(OC(COC(=O)Nc3ccc(F)cc3F)c3ccccc3)cccc2s1 (centres undefined) : 212

Reported Ratio Ki of CNCc1c(NC(=O)OCC(Oc2cccc3sc(C(=N)N)cc23)c2ccccc2)c(C)nn1C (centres undefined) : 475

Reported Ratio Ki of Cc1nn(C)c(CNC(C)C)c1NC(=O)OCC(Oc1cccc2sc(C(=N)N)cc12)c1ccccc1 (centres undefined) : 542

Reported Ratio Ki of COc1ccc(NC(=O)OC[C@@H](Oc2cccc3sc(C(=N)N)cc23)c2ccccc2)cc1 : 108

Reported Ratio Ki of N=C(N)c1cc2c(OC(COC(=O)Nc3ccc(F)cc3)c3ccccc3)cccc2s1 (centres undefined) : 213

Reported Ratio Ki of COc1ccc(NC(=O)OCC(Oc2cccc3sc(C(=N)N)cc23)c2ccccc2)cc1 (centres undefined) : 160

Reported Ratio Ki of CC(C)CNCc1ccccc1NC(=O)OCC(Oc1cccc2sc(C(=N)N)cc12)c1ccccc1 (centres undefined) : 292

Reported Ratio Ki of N=C(N)c1cc2c(OC(COC(=O)Nc3ccccc3F)c3ccccc3)cccc2s1 (centres undefined) : 110

Reported Ratio Ki of Cc1noc(C)c1NC(=O)OCC(Oc1cccc2sc(C(=N)N)cc12)c1ccccc1 (centres undefined) : 210

Reported Ratio Ki of N=C(N)c1cc2c(OC(COC(=O)Nc3ccccc3)c3ccccc3)cc(F)cc2s1 (centres undefined) : 102

Reported Ratio Ki of Cc1ccccc1NC(=O)OCC(Oc1cccc2sc(C(=N)N)cc12)c1ccccc1 (centres undefined) : 148

Reported Ratio Ki of N=C(N)c1cc2c(OC(COC(=O)Nc3ccccc3CN)c3ccccc3)cccc2s1 (centres undefined) : 206

Reported Ratio Ki of CN(C)CCOc1ccc(NC(=O)OCC(Oc2cccc3sc(C(=N)N)cc23)c2ccccc2)cc1 (centres undefined) : 218

Reported Ratio Ki of N=C(N)c1cc2c(OC(COC(=O)Nc3ccccc3CN3CCNCC3)c3ccccc3)cccc2s1 (centres undefined) : 118

Reported Ratio Ki of CNCc1cc(NC(=O)OCC(Oc2cccc3sc(C(=N)N)cc23)c2ccccc2)n(C)n1 (centres undefined) : 254

Reported Ratio Ki of CN(C)Cc1ccccc1NC(=O)OCC(Oc1cccc2sc(C(=N)N)cc12)c1ccccc1 (centres undefined) : 104

Reported Ratio Ki of COC(=O)Cn1nc(C)c(NC(=O)OCC(Oc2cccc3sc(C(=N)N)cc23)c2ccccc2)c1C (centres undefined) : 118

Reported Ratio Ki of Cc1cc(NC(=O)OCC(Oc2cccc3sc(C(=N)N)cc23)c2ccccc2)n(C)n1 (centres undefined) : 205
